// data source = paper PMC11233931

test.system: p38 (Homo sapiens, UniProt Q16539)
Construct: purchased Eurofins (Celle Lévescault)
Sequence (Q16539 2-360): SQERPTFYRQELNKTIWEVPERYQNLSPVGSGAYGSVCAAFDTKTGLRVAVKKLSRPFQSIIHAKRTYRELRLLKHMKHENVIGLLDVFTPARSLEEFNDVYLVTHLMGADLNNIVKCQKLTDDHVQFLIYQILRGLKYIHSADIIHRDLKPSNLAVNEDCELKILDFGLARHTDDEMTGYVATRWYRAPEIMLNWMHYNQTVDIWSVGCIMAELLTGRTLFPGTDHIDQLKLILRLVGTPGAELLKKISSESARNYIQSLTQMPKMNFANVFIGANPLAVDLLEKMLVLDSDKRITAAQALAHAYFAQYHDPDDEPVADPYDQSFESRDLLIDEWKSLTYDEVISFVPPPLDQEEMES
test.name: Eurofins kinase selectivity profile, p38
Assay type: biochemical
measured.attribute: IC50

Task item: // returns reported IC50 for input `C=CC(=O)Nc1cc(-c2cc(-c3cc4c([nH]3)CCNC4=O)ccn2)ccc1OC(F)(F)F`
Reply: > 1000 nM

---

test.name: Cell viability assay (CCK-8), H1437
Type: cell-based
experimental.parameters: H1437 cells (non-small cell lung carcinoma), H1437, human non-small cell lung carcinoma, read-out: IC50 (μM) mean ± SD, cytotoxicity
measured.attribute: IC50 at 72 h (µM)
Field: numeric (µM). Do not append units.

Task item: // returns reported IC50 at 72 h for input C=CC(=O)Nc1cc(-c2cc(-c3cc4c([nH]3)CCNC4=O)ccn2)ccc1OC(F)(F)F [compound 11]
Reply: 33.4
